Item-by-item account of IC50
Measured Target: T1, human LAG3 expressed on HEK293 cells (human, UniProt P18627 23-525)
T1 construct: also called hLAG3; HEK293/hLAG3
T1 sequence: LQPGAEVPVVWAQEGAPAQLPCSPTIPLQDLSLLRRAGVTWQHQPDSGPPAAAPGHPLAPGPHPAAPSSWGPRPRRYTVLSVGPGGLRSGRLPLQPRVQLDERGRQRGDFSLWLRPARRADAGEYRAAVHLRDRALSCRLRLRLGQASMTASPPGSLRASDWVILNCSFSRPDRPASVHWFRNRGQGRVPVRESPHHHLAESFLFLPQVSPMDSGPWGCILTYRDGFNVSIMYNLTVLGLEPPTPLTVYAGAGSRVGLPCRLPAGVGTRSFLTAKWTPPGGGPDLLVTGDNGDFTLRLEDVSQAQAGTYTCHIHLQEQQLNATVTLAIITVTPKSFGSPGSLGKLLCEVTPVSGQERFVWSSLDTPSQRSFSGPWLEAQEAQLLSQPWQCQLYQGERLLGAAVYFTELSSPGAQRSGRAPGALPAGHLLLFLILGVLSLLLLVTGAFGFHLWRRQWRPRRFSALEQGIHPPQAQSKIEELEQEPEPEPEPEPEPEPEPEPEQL
Test: cell adherence assay, blocks A20 (mouse MHCII) cells on HEK293-hLAG3
Just the number please, in nM, no unit attached.

For this binder ( H4H15479P (antibody, human IgG4, V domains shown) VH: QVQLQQWGAGLLNPSETLSLTCAVYGGAFSDYYWNWIRQPPGKGLEWIGEINHRGSTNYNPSLKSRVTISVDTSKNQFSLRMSSVTAADAAVYYCARGEDYDIWNGYYQEKWGQGTLVTVSS VL: EIVLTQSPATLSLSPGERATLSCRASQSISTYLAWYQQKPGQAPRLLIYDASKRATGIPARFSGSGSGTDFTLTISSLEPEDFVVYYCHQRSNWPLTFGGGTKVEIK ), measured IC50 is 11
